- ASSAY INFO: amyloid nucleation score (Sup35N fusion, yeast selection) (log enrichment); library NNK2; higher = more nucleation; inactive = no reads after selection;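 note: zero at mode of non-aggregating sequences after 7 days selection at 30°C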
Category key, based on recorded amyloid nucleation score: A = under 0.09, B = from 0.09 up to 0.7, C = 0.7 and over

QUERY: Textbook exercise: identify the category of the substance given here, "TWVLSWSIPNCARGFLSWWI" , according to its measured value.
RESULT: B

QUERY: Now the substance "WSEISWTIQGCFVRHDALLG"
RESULT: A

QUERY: Now the substance "VGIFLKSYV"
RESULT: A

QUERY: Now the substance "EKYRGSLMSRLAKMWNCCVT"
RESULT: C

QUERY: Now the substance "YVCVNWTFTFLFLCLVGRSL"
RESULT: B

QUERY: Now the substance "QSSYVATWVTLNLGCYFDWK"
RESULT: B

QUERY: Now the substance "RCDLWLSYCQPLNVFLYWLV"
RESULT: B

QUERY: Now the substance "MKGFELSLLVMRHSLELYRI"
RESULT: B

QUERY: Now the substance "KYNDGEFIVVIVGILAYAVV"
RESULT: A

QUERY: Now the substance "NGSSKIERDQRRWGQKAVDT"
RESULT: C

QUERY: Now the substance "WISTTYASLDNPSHKGIVLM"
RESULT: A

QUERY: Now the substance "FLIFTTLLYCMVDMHAGTTF"
RESULT: A

QUERY: Now the substance "HFIKKGDYNKTTKYSPCNEL"
RESULT: A

QUERY: Now the substance "EVGILVTVVYSGKWKVSRCM"
RESULT: C

QUERY: Now the substance "RGDHDCW"
RESULT: C

QUERY: Now the substance "LCCGLFFFVRVY"
RESULT: C

Data credit: the supplement of paper PMC12042874
